- Test system: Aspergillus fumigatus isolates
- protocol-description: Broth microdilution assay of planktonic fungal growth (modified EUCAST)
- Assay type: cell-based
- experimental-conditions: Aspergillus fumigatus; isolate NCPF7100, broth microdilution; read-out: MIC75
measurement-label: MIC (µM)
Value expressed in µM; do not type the unit.

• Cc1cc(N2CCN(c3ccc(C(=O)Nc4ccc(F)cc4)cc3)CC2)ccc1OC[C@@H]1CO[C@@](Cn2cncn2)(c2ccc(F)cc2F)C1 = 0.0197
• [2H]c1c([2H])c(NC(=O)c2ccc(N3CCN(c4ccc(OC[C@@H]5CO[C@@](Cn6cncn6)(c6ccc(F)cc6F)C5)c(C)c4)CC3)cc2)c([2H])c([2H])c1F [Compound (I)•4[^2H]] = 0.0286
• CC[C@@H]([C@H](C)O)n1ncn(-c2ccc(N3CCN(c4ccc(OC[C@@H]5CO[C@@](Cn6cncn6)(c6ccc(F)cc6F)C5)cc4)CC3)cc2)c1=O = 0.0715

*Q* For the molecule C[C@@H](c1ncncc1F)[C@](O)(Cn1cncn1)c1ccc(F)cc1F , give its reported MIC.
*A* 0.596

====

- System: Aspergillus fumigatus isolates
- protocol-description: Broth microdilution assay of planktonic fungal growth (modified EUCAST)
- Type: cell-based
- experimental-conditions: Aspergillus fumigatus; isolate NCPF7099, broth microdilution; read-out: MIC75
Entries and their measured MIC follow.
Value expressed in µM; do not type the unit.

- C[C@@H](c1ncncc1F)[C@](O)(Cn1cncn1)c1ccc(F)cc1F [Voriconazole]: 0.0967

*Q* For the compound [2H]c1c([2H])c(NC(=O)c2ccc(N3CCN(c4ccc(OC[C@@H]5CO[C@@](Cn6cncn6)(c6ccc(F)cc6F)C5)c(C)c4)CC3)cc2)c([2H])c([2H])c1F [Compound (I)•4[^2H]] , give its reported MIC.
*A* 0.0137

*Q* For the compound CC[C@@H]([C@H](C)O)n1ncn(-c2ccc(N3CCN(c4ccc(OC[C@@H]5CO[C@@](Cn6cncn6)(c6ccc(F)cc6F)C5)cc4)CC3)cc2)c1=O [Posaconazole] , give its reported MIC.
*A* 0.112

*Q* For the compound Cc1cc(N2CCN(c3ccc(C(=O)Nc4ccc(F)cc4)cc3)CC2)ccc1OC[C@@H]1CO[C@@](Cn2cncn2)(c2ccc(F)cc2F)C1 [Compound (I)] , give its reported MIC.
*A* 0.0165

====

- Tested on: BEAS2B cells
- protocol-description: Cell viability: resazurin assay
- Type: cell-based, human
- experimental-conditions: n = 1-5
measurement-label: CC50 (nM)
Value expressed in nM; do not type the unit.

*Q* For the compound C[C@@H]1[C@H](O)[C@@H](C)/C=C/C=C/C=C/C=C/C=C/C=C/C=C/[C@H](O[C@@H]2O[C@H](C)[C@@H](O)[C@H](N)[C@@H]2O)C[C@@H]2O[C@](O)(C[C@@H](O)C[C@@H](O)[C@H](O)CC[C@@H](O)C[C@@H](O)CC(=O)O[C@H]1C)C[C@H](O)[C@H]2C(=O)O , give its reported CC50.
*A* 977

Reference source for all entries: patent US20210238169A1
